Hi there, I'd appreciate the recorded kinase still bound, per cent of control for every entry that follows.
- System: KIT (human), P10721 [V559D/T670I]
- Sequence (P10721 whole entry V559D/T670I, looked up): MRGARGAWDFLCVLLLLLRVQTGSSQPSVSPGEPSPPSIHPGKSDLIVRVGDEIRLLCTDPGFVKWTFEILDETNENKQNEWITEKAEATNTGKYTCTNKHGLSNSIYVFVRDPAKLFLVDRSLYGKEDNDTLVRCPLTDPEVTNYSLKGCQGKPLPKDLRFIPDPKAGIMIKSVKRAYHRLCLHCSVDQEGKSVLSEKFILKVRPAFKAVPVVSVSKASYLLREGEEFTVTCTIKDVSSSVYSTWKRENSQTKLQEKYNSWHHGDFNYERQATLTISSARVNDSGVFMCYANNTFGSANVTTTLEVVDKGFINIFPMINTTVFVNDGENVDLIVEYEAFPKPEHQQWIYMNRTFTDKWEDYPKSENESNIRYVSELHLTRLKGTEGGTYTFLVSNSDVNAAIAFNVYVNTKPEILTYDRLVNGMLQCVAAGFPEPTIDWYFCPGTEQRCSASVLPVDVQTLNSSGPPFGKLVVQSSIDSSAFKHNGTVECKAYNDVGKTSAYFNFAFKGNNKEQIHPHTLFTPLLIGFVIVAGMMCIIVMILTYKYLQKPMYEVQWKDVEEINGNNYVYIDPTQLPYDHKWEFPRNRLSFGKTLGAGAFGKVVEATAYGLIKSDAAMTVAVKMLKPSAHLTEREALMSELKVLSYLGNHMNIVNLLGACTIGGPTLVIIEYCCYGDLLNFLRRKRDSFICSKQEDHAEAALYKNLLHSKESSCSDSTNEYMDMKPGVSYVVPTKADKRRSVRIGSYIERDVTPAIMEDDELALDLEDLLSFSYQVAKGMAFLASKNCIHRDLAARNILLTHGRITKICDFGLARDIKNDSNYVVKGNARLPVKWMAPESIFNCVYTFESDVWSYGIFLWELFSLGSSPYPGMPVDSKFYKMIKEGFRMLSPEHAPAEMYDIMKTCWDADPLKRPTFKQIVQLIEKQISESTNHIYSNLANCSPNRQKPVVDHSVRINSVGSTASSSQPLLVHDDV
- measurement-description: KINOMEscan competition binding
- experimental-parameters: compound 10.0 µM
State the answer as a number, implicitly in %.

// field: kinase still bound, per cent of control; key: C[C@@H](Oc1cc(-n2cnc3ccc(CN4CCN(C)CC4)cc32)sc1C(N)=O)c1ccccc1C(F)(F)F ; value = 37

// field: kinase still bound, per cent of control; key: COc1cc(C(=O)N2CCC(N3CCN(C)CC3)CC2)ccc1Nc1ncc2c(n1)N(C)c1ccccc1C(=O)N2C ; value = 81

// field: kinase still bound, per cent of control; key: CC(=O)c1c(C)c2cnc(Nc3ccc(N4CCNCC4)cn3)nc2n(C2CCCC2)c1=O ; value = 61

// field: kinase still bound, per cent of control; key: N#Cc1cc(-c2ccnc(Nc3ccc(-n4cnc(-c5cccnc5)n4)cc3)n2)cc(N2CCOCC2)c1 ; value = 4.2
